- Protocol Summary: in vitro
- Condition: human, Caco-2, Caco-2 (membrane permeability)
Where a SMILES comes first, the peptide text is derived from it. Bridges are numbered along the chain shown (N, C = ends). [ ]: non-standard residue; d: D form. The star is where a group is joined. NMeF = CN[C@@H](Cc1ccccc1)C(=O)O; NMeI = CC[C@H](C)[C@H](NC)C(=O)O; NMeL = CN[C@@H](CC(C)C)C(=O)O; Piperidide = C1CCN(*)CC1; NBuGly = CCCCNCC(=O)O
Test Readout: Papp (×10⁻⁶ cm/s)
Express your answer in ×10⁻⁶ cm/s, writing the number without its unit.

## Task Looking for the measured Papp of CCCCN1CC(=O)N(C)[C@@H](CC(C)C)C(=O)N[C@@H](CC(C)C)C(=O)N(C)[C@@H](Cc2ccccc2)C(=O)N(C)[C@@H]([C@@H](C)CC)C(=O)N[C@H](C(=O)N2CCCCC2)CC(=O)N[C@H](CC(C)C)C(=O)N(C)[C@@H](Cc2ccccc2)C(=O)N[C@@H](CCC(=O)NC)C(=O)N(C)[C@@H](CC(C)C)C(=O)N[C@@H]([C@@H](C)O)C1=O [Compound J01] ([dL][NMeF]E(NHMe)[NMeL]T[NBuGly][NMeL]L[NMeF][NMeI]D-Piperidide; lactam N-11) , can you help?
## Result 0.062
